src = PubChem BioAssay (NCI)

- assay: NCI Yeast Anticancer Drug Screen. Data for the mlh1 strain (AID 171);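 note: 0% = growth of vehicle-treated control cultures of the same strain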
- reported conditions: S. cerevisiae mlh1 strain growth inhibition; at 1.2 µM; stronger effect = higher value
Compounds without any hit were thinned out: in the full panel of roughly 79,000, 15% have a hit.
Documented growth inhibition across a set of compounds
Quick note: give the figure in %, leave out the unit.

Qu. Look up growth inhibition for this compound: O=C1c2cccnc2C(=O)C2C3C=CC(C3)C12 (stereo unspecified)
Ans. 28

Qu. Endpoint output: growth inhibition of "Cc1cc(C)nc(NS(=O)(=O)c2ccc(Nc3c4ccccc4nc4c(C(=O)NCCO)cccc34)cc2)n1" . Value?
Ans. -3

Qu. I have this compound here, "CCN(CC)CCNc1ccc([N+](=O)[O-])c2nc3ccccc3c(N)c12" , and I need its recorded growth inhibition.
Ans. -5

Qu. Give its growth inhibition value. Item: "COC1=C(N)C(=O)c2nc(-c3nc(C(=O)O)c(C)c(-c4ccc(OC)c(OC)c4O)c3N)ccc2C1=O"
Ans. 95

Qu. What value of growth inhibition has been recorded for this entry: "CNC(=O)OCc1c(COC(=O)NC)c2n(c1C)-c1ccc(OC)cc1CCC2"
Ans. -42

Qu. Endpoint output: growth inhibition of COc1cccc2c1C(=O)c1c(O)c3c(c(O)c1C2=O)C[C@@](O)(C(C)=O)C[C@@H]3OC1CC(OC(C)=O)C(OC(C)=O)C(C)O1 (stereo partly specified) . Value?
Ans. -41

Further cases:
Qu. Entry "Oc1ccc(SCc2ccc(NCc3ccccc3)cc2)cc1" : reported growth inhibition = ?
Ans. -8

Qu. Reported growth inhibition for "Cc1nc2ccccc2nc1NNc1ccccc1" : what is it?
Ans. 1

Qu. Recorded growth inhibition for "CCOc1ccc(NC(=O)C2=C(C)NC(C)=C(C(=O)Nc3ccc(OCC)cc3)C2c2cccc([N+](=O)[O-])c2)cc1" , please?
Ans. -2

Qu. # lookup: growth inhibition of "CCOC(=N)c1ccc(O)c(OC)c1"
Ans. -2

Qu. Which growth inhibition value is on record for "O=C1NC(SSC2=NNC3(C(=O)N2)c2ccccc2-c2ccccc23)=NNC12c1ccccc1-c1ccccc12" ?
Ans. 3

Qu. Need growth inhibition of COc1nc2c(c(=O)n1C)N=C(c1ccccc1)[C@H](C(CC(=O)c1ccccc1)c1ccccc1)C(c1ccccc1)N2 (stereo partly specified) , thanks.
Ans. -53

====

- assay: NCI Yeast Anticancer Drug Screen. Data for the mec2-1 strain (AID 157)
- reported conditions: S. cerevisiae mec2-1 strain, at 5.0 µM (retest, dose inferred, filed as 0.5), stronger effect = higher value
This is part of a sample that, as a whole, favours compounds with a hit. Of some 79,000 tested, about 15% had one in any assay.
In this section, each of the molecules is paired with its reported growth inhibition.
Answer in %, number only, no unit symbol.

Use these answered entries as a reference point.
Qu. Dear colleague, I am looking for the recorded growth inhibition of the following molecule: "CCOC(=O)c1[nH]cc(C)c1-c1cccn1-c1ccc(Cl)cc1[N+](=O)[O-]"
Ans. 3

Qu. Look at this molecule and give its reported growth inhibition. "N#CC(C#N)=NNc1ccc(S(=O)(=O)O)cc1"
Ans. 93

Qu. // returns reported growth inhibition for input "O=C(NCCCl)Sc1ccc(Cl)cc1"
Ans. -52

---
Qu. Could you share which growth inhibition value was measured for "CSc1nnc(SC)nn1" ?
Ans. 57

Qu. What does the data say about its growth inhibition? Entry: "O=C(C[n+]1ccc2ccccc2c1)c1ccc2ccccc2c1"
Ans. 64

Qu. Which growth inhibition is reported for this molecule? "S=C1SCN(C2CCCCC2)CN1C1CCCCC1"
Ans. 56

Qu. Given the entry "O=c1nc2n(Cc3ccccc3)c3ccccc3nc-2c(=O)[nH]1" , report its measured growth inhibition.
Ans. -2

Qu. # query: growth inhibition of entry "COC(=O)/C=C(/CC(=O)OC)C(=O)OC"
Ans. 12

Qu. If you can, please state the reported growth inhibition value of COc1ccc(NC(=O)CC2SC(=Nc3ccccc3C)NC2=O)c([N+](=O)[O-])c1 (stereo unspecified) .
Ans. -17

Qu. Which value of growth inhibition has been reported for "CC(C)(C)CC(C)(C)c1cc(O)c(O)c(CN2CCCCC2)c1" in the records?
Ans. 16

====

- assay: NCI Yeast Anticancer Drug Screen. Data for the wt1 strain (AID 149);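 note: 0% = growth of vehicle-treated wt1 cultures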
- reported conditions: S. cerevisiae wt1 strain (SPY 50644) growth inhibition; at 33.0 µM; stronger effect = higher value
- Procedure: Growth inhibition of yeast strains with defined genetic alterations is measured as a screen for potential anti-cancer activity. Selected strains with alterations in DNA damage repair or cell cycle control were exposed to compounds and growth inhibition was measured relative to vehicle treated controls. The strain used in this assay is wt1
About 79,000 compounds went through this panel and 15% of them were active in at least one assay; those are over-represented in the sample as a whole.
quantity kind: growth inhibition (%)
The figure you give is taken to be in %; do not add the unit.

Qu. Dear colleague, I am looking for the recorded growth inhibition of the following molecule: "Cc1ccc(NCCNCCO)c2c(=O)c3cc(O)ccc3sc12"
Ans. -1

Qu. // growth inhibition lookup, key: "CCCCCCCCCCCCCCCCCC(=O)NCCCN(C)C"
Ans. 98

Qu. growth inhibition for "Cc1cc(N(CCOS(C)(=O)=O)CCOS(C)(=O)=O)ccc1C=Nc1ccc(-c2nc(Cc3ccccc3)sc2C)cc1" ?
Ans. 90

New cases:
Qu. Could you tell me which growth inhibition is on file for "CCCC(=O)Oc1ccc(/C=N/NC(N)=S)nc1" ?
Ans. -19

Qu. Name the recorded growth inhibition for "Cc1c(-c2ccccn2)ccc2ccccc12" .
Ans. -4

====

- assay: NCI Yeast Anticancer Drug Screen. Data for the mec2-1 strain (AID 157)
- reported conditions: S. cerevisiae mec2-1 strain, at 11.0 µM, stronger effect = higher value
This is part of a sample that, as a whole, favours compounds with a hit. Of some 79,000 tested, about 15% had one in any assay.
The entries below are paired with their reported growth inhibition.
Write the value in % as a bare number.

Qu. Item "Cc1c2cc[n+](Cc3ccc(I)cc3)cc2c(C)c2c1[nH]c1ccccc12" has what recorded growth inhibition?
Ans. 96

Qu. Form field: reported growth inhibition of "Cc1ccc([N+]2=NC(c3ccccc3)=NN(c3ccccc3)C2)cc1"
Ans. 1

====

- assay: NCI Yeast Anticancer Drug Screen. Data for the rad18 strain (AID 177)
- reported conditions: S. cerevisiae rad18 mutant growth inhibition; at 3.7 µM
Compounds without any hit were thinned out: in the full panel of roughly 79,000, 15% have a hit. Calls of active or inactive are those of the source. Rule as the data show it: active = growth inhibition above about 70%; inactive = the rest.
Your answer must be one of the following: TRUE (active), FALSE (inactive)

Qu. Test call for this molecule, please: CCCCNC1CCC2(SCCS2)c2[nH]c3ccccc3c21 (centres undefined)
Ans. FALSE

Qu. Assay result, entry "O=C1N=C2SC=C(NC(=S)Nc3ccccc3)N2NC12c1ccccc1-c1ccccc12" — outcome?
Ans. FALSE

Qu. Per the assay record, what outcome was assigned to "CC(/C=C/c1ccccc1)=N\NC(N)=S" ?
Ans. FALSE

Qu. Please let me know the test result on file for "CNCCCNc1c2ccccc2nc2cccc([N+](=O)[O-])c12" .
Ans. TRUE

Qu. Please let me know the test result on file for "Cc1cc(NCCCCCCCCNc2cc(C)nc3cc(N)ccc23)c2ccc(N)cc2n1" .
Ans. FALSE

Qu. Assay outcome for "COc1ccc(/C=C/c2sc3ccccc3[n+]2CCCCI)cc1OC" : what was it?
Ans. FALSE

Qu. Hello, I am checking results. What call was entered for CCC1(OC(=O)CN2CCN(CCO)CC2)C(=O)OCc2c1cc1n(c2=O)Cc2cc3ccccc3nc2-1 (centres undefined) ?
Ans. FALSE

====

Reported growth inhibition by item:
- assay: NCI Yeast Anticancer Drug Screen. Data for the rad18 strain (AID 177)
- reported conditions: S. cerevisiae rad18 mutant growth inhibition; at 11.0 µM; stronger effect = higher value
The panel holds about 79,000 compounds, 15% with a hit somewhere; the sample as a whole holds those more often.
Answer with a number only, understood to be in %.

# annotated cases, reported growth inhibition shown
Qu. Suppose we examine the molecule "NC(N)=NS(=O)(=O)c1ccc(Nc2c3ccccc3nc3c(C(=O)NCCO)cccc23)cc1" ; what growth inhibition value has been reported?
Ans. 9

Qu. Any idea what growth inhibition was measured for "OCc1ccccc1Cc1ccccc1" ?
Ans. -16

Qu. Could you tell me which growth inhibition is on file for "O=C(O)c1cc2ccccc2c2c1C(=O)c1ccccc1-2" ?
Ans. 43

Qu. What measured growth inhibition goes with "CC(C)(C)c1ccc(NS(=O)(=O)c2ccc(N)cc2)cc1" ?
Ans. 15

Qu. Any idea what growth inhibition was measured for "O=C(CC(=O)n1nc(-c2ccccc2)c(N=Nc2ccc(Cl)cc2)c1-c1ccccc1)Nc1cccc(Cl)c1" ?
Ans. -1

Switching to the query record.
Qu. Fill blank: measured growth inhibition of the molecule CC(=O)OC1CCC2(C)C(=CC(C3C=C4CC(OC(C)=O)CCC4(C)C4=C3C3CC5OC6(CCC(C)CO6)C(C)C5C3(C)CC4)C3=C2CCC2(C)C3CC3OC4(CCC(C)CO4)C(C)C32)C1 (stereo unspecified) is ____.
Ans. -3
